Cited source: patent US11129835B2

Target: Pin1 (Homo sapiens, UniProt Q13526)
Sequence (Q13526 whole entry): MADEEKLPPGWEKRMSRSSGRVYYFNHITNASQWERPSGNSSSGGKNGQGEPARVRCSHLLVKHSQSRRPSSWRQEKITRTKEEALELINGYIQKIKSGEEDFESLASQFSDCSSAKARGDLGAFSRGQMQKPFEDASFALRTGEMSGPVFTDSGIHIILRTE
Experiment: Pin1 fluorescence polarization competition assay, primary qHTS (HiFluor-488 / Alexa488 probe)
Settings: Average HTS Potency, average over Alexa488 primary, Alexa488 reconfirmed and Tamra secondary assays
pIC50: −log10 of the molar value.
PROPERTY LABEL: pIC50

Example entries begin here.
| MOLECULE | RECORDED RESULT |
| --- | --- |
| COc1ccc(NC(=O)CN(C)C(=O)c2cc3c(s2)CCC3)cc1 | 4.66 |
| O=C(O)C1Nc2c(O)cc(Cl)c([N+](=O)[O-])c2C2C=CCC12 (stereo not shown) | 5.40 |

[1] CCOc1cc(Br)cc(C(c2c(C(=O)O)[nH]c3ccccc23)c2c(C(=O)O)[nH]c3ccccc23)c1O
[2] COc1ccc(C(=O)c2no[n+]([O-])c2C(=O)c2ccc(OC)cc2)cc1
Task: Of the two listed items, which has the higher pIC50? First: 1 Second: 2 I would appreciate it if you answered with the label of your choice.
Result: 2

====

Biological target: Pin1 (Homo sapiens, UniProt Q13526)
Assay: Pin1 fluorescence polarization competition assay with Tamra-probe (secondary)
pIC50: −log10 of the molar value.
PROPERTY LABEL: pIC50

[A] CCCCCCCCCCCCN1[C@@H](C(=O)O)c2cc(C(F)(F)F)ccc2S1(=O)=O [Compound 34]
[B] CC(=O)c1ccc2c(c1)C1C=CCC1C(C(=O)O)N2 (stereo not drawn) [Compound 1]
[C] NS(=O)(=O)c1cc(C(=O)NC2CCSc3ccccc32)ccc1Cl (stereo not drawn) [Compound 11]
[D] Cc1c(C(=O)c2no[n+]([O-])c2C(=O)c2cnn(C)c2C)cnn1C [Compound 30]
[E] O=S(=O)(Nc1nc(-c2sccc2Cl)cs1)c1cc(Cl)ccc1Cl [Compound 24]
Task: Would you mind ranking these molecules by ascending pIC50? Reply: labels, ordered per the request.
Result: A, E, C, B, D
(A: 4.42, E: 4.92, C: 5.40, B: 5.92, D: 6.37)

[1] Cc1ccc(N(Cc2cc(=O)[nH]c3ccccc23)C(=O)CCl)cc1 [Compound 9]
[2] Cc1oc(-c2ccc3c(c2)OCCO3)cc1C(=O)NC(Cc1ccccc1)C(=O)O (stereo not drawn) [Compound 21]
Task: Of the two listed items, which has the higher pIC50? First: 1 Second: 2 I would appreciate it if you answered with the label of your choice.
Result: 1

[A] O=C1OC(/C(=C\Nc2cc(Cl)ccc2O)[N+](=O)[O-])c2ccccc21 (stereo not drawn) [Compound 12]
[B] O=S(=O)(O)c1ccc(O)c2cc(Nc3ccccc3)ccc12 [Compound 13]
Task: Of the two listed items, which has the higher pIC50? First: A Second: B I would appreciate it if you answered with the label of your choice.
Result: A
(A: 5.96, B: 5.52)

====

Target: Pin1 (Homo sapiens, UniProt Q13526)
Assay: Pin1 fluorescence polarization competition assay, primary qHTS (HiFluor-488 / Alexa488 probe);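 also: Pin1 protein with fluorescent peptide probe, compound displacement read by fluorescence polarization, percent inhibition derived from corrected polarization values, concentration-response curves in 1536-well format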
Conditions: primary qHTS
PROPERTY LABEL: Alexa488 Primary Curve Class

Example entries begin here.
| COMPOUND | TARGET ENTITY | Alexa488 Primary Curve Class |
| --- | --- | --- |
| O=C(O)c1[nH]c2ccccc2c1C(c1cc(Br)ccc1O)c1c(C(=O)O)[nH]c2ccccc12 [Compound 43] | Pin1 (Homo sapiens, UniProt Q13526) | 1.2 (≤80% (class 1.2)) |
| O=S(=O)(Nc1nc(-c2sccc2Cl)cs1)c1cc(Cl)ccc1Cl [Compound 24] | Pin1 (Homo sapiens, UniProt Q13526) | 1.2 (≤80% (class 1.2)) |
| O=C1OC(/C(=C\Nc2cc(Cl)ccc2O)[N+](=O)[O-])c2ccccc21 (centres unmarked) [Compound 12] | Pin1 (Homo sapiens, UniProt Q13526) | 1.2 (≤80% (class 1.2)) |
| O=C(O)c1[nH]c2ccccc2c1C(c1cc(Cl)cc([N+](=O)[O-])c1O)c1c(C(=O)O)[nH]c2ccccc12 [Compound 44] | Pin1 (Homo sapiens, UniProt Q13526) | 2.2 (≤80% (class 2.2)) |
| C=CCOc1ccc(C(c2c(C(=O)O)[nH]c3ccccc23)c2c(C(=O)O)[nH]c3ccccc23)cc1 [Compound 46] | Pin1 (Homo sapiens, UniProt Q13526) | 2.2 (≤80% (class 2.2)) |
| NS(=O)(=O)c1cc(C(=O)NC2CCSc3ccccc32)ccc1Cl (centres unmarked) [Compound 11] | Pin1 (Homo sapiens, UniProt Q13526) | 1.2 (≤80% (class 1.2)) |

Query COC(=O)COc1ccc(C2Nc3c(Cl)ccc(C(=O)O)c3C3C=CCC32)cc1 (centres unmarked) [Compound 42] yields Alexa488 Primary Curve Class of 1.2 (≤80% (class 1.2))

Query Cc1cccc(N(Cc2cc(=O)[nH]c3ccccc23)C(=O)CCl)c1 [Compound 10] yields Alexa488 Primary Curve Class of 2.2 (≤80% (class 2.2))

====

Target: UniProtKB Q13526
Test: Pin1 fluorescence polarization competition assay with Tamra-probe (secondary)
Conditions: Tamra-probe
PROPERTY LABEL: Tamra Secondary Curve Class

Example entries begin here.
| COMPOUND | TARGET ENTITY | RECORDED RESULT |
| --- | --- | --- |
| CCCCOc1ccc(C(=O)N/C(=C/c2cccc([N+](=O)[O-])c2)C(=O)O)cc1 | UniProtKB Q13526 | 2.2 (≤80% (class 2.2)) |
| C=CCOc1ccc(C(c2c(C(=O)O)[nH]c3ccccc23)c2c(C(=O)O)[nH]c3ccccc23)cc1 | UniProtKB Q13526 | 2.2 (≤80% (class 2.2)) |
| Cc1oc(-c2ccc3c(c2)OCCO3)cc1C(=O)NC(Cc1ccccc1)C(=O)O (centres unmarked) | UniProtKB Q13526 | 2.2 (≤80% (class 2.2)) |
| O=C(NC(Cc1ccccc1)C(=O)O)/C(=C\c1ccco1)NC(=O)c1ccccc1 (centres unmarked) | UniProtKB Q13526 | 2.2 (≤80% (class 2.2)) |
| CCOc1cc(Br)cc(C(c2c(C(=O)O)[nH]c3ccccc23)c2c(C(=O)O)[nH]c3ccccc23)c1O | UniProtKB Q13526 | 3.0 |

Query `COc1ccc(NS(=O)(=O)c2ccc3c(c2)[C@H]2C=CC[C@H]2[C@@H](c2ccc(C(=O)O)cc2)N3)cc1` yields Tamra Secondary Curve Class of 2.2 (≤80% (class 2.2))

Query O=C(O)C1Nc2c(C(F)(F)F)ccc(Cl)c2C2C=CCC12 (centres unmarked) yields Tamra Secondary Curve Class of 2.2 (≤80% (class 2.2))

Query `O=C(c1ccc(=O)oc1)N1CCOCC1` yields Tamra Secondary Curve Class of 1.2 (≤80% (class 1.2))

====

Target: Pin1 (Homo sapiens, UniProt Q13526)
Test: Pin1 fluorescence polarization competition assay with Tamra-probe (secondary)
Settings: read-out: Tamra Secondary Efficacy
PROPERTY LABEL: Emax (%)

Example entries begin here.
| COMPOUND | TARGET ENTITY | RECORDED RESULT |
| --- | --- | --- |
| O=C(O)C1Nc2c(Cl)cc(Cl)c(Cl)c2C2C=CCC12 (stereo not shown) | Pin1 (Homo sapiens, UniProt Q13526) | 61 |
| O=C(O)c1cc(Cl)c2c(c1)[C@@H]1C=CC[C@@H]1[C@H](c1ccc(S(=O)(=O)N3CCOCC3)cc1)N2 | Pin1 (Homo sapiens, UniProt Q13526) | 80 |

[a] Cc1c(C(=O)c2no[n+]([O-])c2C(=O)c2cnn(C)c2C)cnn1C
[b] COc1ccc(S(=O)(=O)N2CCN(C(=O)c3cc4c(s3)CCC4)CC2)cc1
Task: Hey, which is lower on measured Emax, a or b ? I would appreciate it if you answered with the label of your choice.
Result: a
(a: 80%, b: 126%)

====

Molecular target: UniProtKB Q13526
Assay: Pin1 fluorescence polarization competition assay, primary qHTS (HiFluor-488 / Alexa488 probe)
Settings: read-out: Average HTS Efficacy
PROPERTY LABEL: Emax (%)

Example entries begin here.
| COMPOUND | QUANTITY UNIT | RECORDED RESULT |
| --- | --- | --- |
| COc1ccc(NC(=O)CN(C)C(O)c2cc(-c3ccco3)nc3ccccc23)cc1 (stereo not drawn) | % | 41 |
| O=S(=O)(Nc1nc(-c2sccc2Cl)cs1)c1cc(Cl)ccc1Cl | % | 92 |
| COc1ccc(NC(=O)CN(C)C(=O)c2cc3c(s2)CCC3)cc1 | % | 94 |
| O=C(c1ccc(=O)oc1)N1CCOCC1 | % | 73 |
| COc1ccccc1Nc1ccc2c(O)cc(S(=O)(=O)O)cc2c1 | % | 72 |

[a] CCn1nc(-c2ccccc2C)nc2c(=O)n(C)c(=O)nc1-2
[b] O=C(O)C1Nc2c(O)cccc2C2C=CCC12 (stereo not drawn)
[c] CC(=O)Nc1cc(=O)c2[nH]o[nH]c=2c1=O
Task: Please list these in order of increasing Emax. Thank you! Reply: labels, ordered per the request.
Result: b, a, c
